# Experimental target: Human M4 (Homo sapiens)
# Sequence (P08173 whole entry): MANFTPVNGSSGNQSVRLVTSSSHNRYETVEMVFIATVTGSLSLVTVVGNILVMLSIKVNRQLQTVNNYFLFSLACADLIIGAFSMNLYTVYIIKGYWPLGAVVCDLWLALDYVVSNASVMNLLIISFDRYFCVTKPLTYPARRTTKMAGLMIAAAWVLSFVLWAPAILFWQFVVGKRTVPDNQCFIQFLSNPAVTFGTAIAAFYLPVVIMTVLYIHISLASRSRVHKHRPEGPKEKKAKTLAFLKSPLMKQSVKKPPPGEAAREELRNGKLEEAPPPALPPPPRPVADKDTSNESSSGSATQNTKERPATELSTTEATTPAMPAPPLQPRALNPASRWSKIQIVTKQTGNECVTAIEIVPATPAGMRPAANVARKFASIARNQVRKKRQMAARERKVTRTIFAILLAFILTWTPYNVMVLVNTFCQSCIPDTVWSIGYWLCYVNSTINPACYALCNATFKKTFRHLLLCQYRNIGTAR
# Protocol details: mAChR M4 cell-based functional assay (calcium flux, antagonism of EC80 acetylcholine response)
# Stated conditions: M4/Gqi5/CHO-K1 cells; concentration-dependent decrease of the response elicited by an EC80 concentration of acetylcholine
Label key: 1 means IC50 under 0.04 µM; -1 means IC50 of 0.04 µM or more.

Worked set:
[2H]C([2H])(C1CCOCC1)N1C[C@H]2C[C@H](Nc3ccc(-c4ccc(C(=O)NC)c(F)c4)nn3)C[C@H]2C1 | 1
O=C(c1cc(F)c(F)c(-c2ccc(N[C@H]3C[C@@H]4CN(CC5CCOCC5)C[C@@H]4C3)nn2)c1)N1CCOCC1 | -1
CCC(=O)Nc1cccc(-c2ccc(N[C@H]3C[C@@H]4CN(CC5CCOCC5)C[C@@H]4C3)nn2)c1 | -1
[2H]C([2H])([2H])C(=O)Nc1ccc(-c2ccc(N[C@H]3C[C@@H]4CN(C([2H])([2H])C5CCOCC5)C[C@@H]4C3)nn2)cc1 (single isomer, unassigned) | 1
[2H]C([2H])([2H])NC(=O)c1cccc(-c2ccc(N[C@H]3C[C@@H]4CN(CC5CCOCC5)C[C@@H]4C3)nn2)c1 (single isomer, unassigned) | 1

Does the reported IC50 of [2H]C([2H])(C1CCOCC1)N1C[C@H]2C[C@H](Nc3ccc(-c4cc(F)c(C(N)=O)c(F)c4)nn3)C[C@H]2C1 stay below 0.04 µM?
1

Does the reported IC50 of [2H]C([2H])(C1CCOCC1)N1C[C@H]2C[C@H](Nc3ccc(-c4cccc(C(=O)NC(C)C)c4)nn3)C[C@H]2C1 stay below 0.04 µM?
1

Does the reported IC50 of [2H]C([2H])(C1CCOCC1)N1C[C@H]2C[C@H](Nc3ccc(-c4cccc(NC(=O)CC)c4)nn3)C[C@H]2C1 stay below 0.04 µM?
1

Does the reported IC50 of [2H]C([2H])(C1CCOCC1)N1C[C@H]2C[C@H](Nc3ccc(-c4ccccc4NC(C)=O)nn3)C[C@H]2C1 stay below 0.04 µM?
-1

Does the reported IC50 of CC(=O)Nc1ccc(-c2ccc(N[C@H]3C[C@@H]4CN(CC5(C)COC5)C[C@@H]4C3)nn2)cc1 stay below 0.04 µM?
-1

Does the reported IC50 of CCNC(=O)c1ccccc1-c1ccc(N[C@H]2C[C@@H]3CN(CC4CCOCC4)C[C@@H]3C2)nn1 stay below 0.04 µM?
-1

Does the reported IC50 of [2H]C([2H])(C1CCOCC1)N1C[C@H]2C[C@H](Nc3ccc(-c4cccc(C(=O)NCC)c4)nn3)C[C@H]2C1 stay below 0.04 µM?
1
